Where do these numbers come from? They come from paper PMC5432616.

# ASSAY_TARGET: hOAT (human ornithine δ-aminotransferase) (Homo sapiens, UniProt P04181, R217A)
# Construct: untagged, pET43a, E. coli BL21(DE3)pLysS; DEAE and Superdex 200; tetramer in equilibrium with dimer, dimer is the functional unit
# Sequence (P04181 26-439 R217A): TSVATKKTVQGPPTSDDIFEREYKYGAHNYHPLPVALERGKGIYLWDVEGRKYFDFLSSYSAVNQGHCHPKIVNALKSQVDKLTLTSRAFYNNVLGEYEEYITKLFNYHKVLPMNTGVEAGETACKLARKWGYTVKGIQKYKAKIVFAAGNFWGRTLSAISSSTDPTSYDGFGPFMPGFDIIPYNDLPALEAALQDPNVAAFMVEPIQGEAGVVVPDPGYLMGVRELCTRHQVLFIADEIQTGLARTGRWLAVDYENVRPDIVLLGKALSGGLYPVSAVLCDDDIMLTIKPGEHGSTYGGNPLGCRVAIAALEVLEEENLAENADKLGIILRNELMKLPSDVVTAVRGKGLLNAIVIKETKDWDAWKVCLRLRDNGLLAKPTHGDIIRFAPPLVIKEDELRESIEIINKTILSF
# ASSAY_PROTOCOL: quenching of intrinsic fluorescence of apoenzyme at […] nm
# TEST_CONTEXT: read-out: KD(PLP)
MEASUREMENT_NAME: pKd
pKd here is simply -log10 of the concentration when that concentration is written in mol/L.

Missing value: pKd, hOAT (human ornithine δ-aminotransferase) (Homo sapiens, UniProt P04181, R217A), entry Cc1ncc(COP(=O)(O)O)c(C=O)c1O . Fill in?
6.55
